# Measured on: rFVIII (Homo sapiens, UniProt P00451)
# Sequence (P00451 20-2351): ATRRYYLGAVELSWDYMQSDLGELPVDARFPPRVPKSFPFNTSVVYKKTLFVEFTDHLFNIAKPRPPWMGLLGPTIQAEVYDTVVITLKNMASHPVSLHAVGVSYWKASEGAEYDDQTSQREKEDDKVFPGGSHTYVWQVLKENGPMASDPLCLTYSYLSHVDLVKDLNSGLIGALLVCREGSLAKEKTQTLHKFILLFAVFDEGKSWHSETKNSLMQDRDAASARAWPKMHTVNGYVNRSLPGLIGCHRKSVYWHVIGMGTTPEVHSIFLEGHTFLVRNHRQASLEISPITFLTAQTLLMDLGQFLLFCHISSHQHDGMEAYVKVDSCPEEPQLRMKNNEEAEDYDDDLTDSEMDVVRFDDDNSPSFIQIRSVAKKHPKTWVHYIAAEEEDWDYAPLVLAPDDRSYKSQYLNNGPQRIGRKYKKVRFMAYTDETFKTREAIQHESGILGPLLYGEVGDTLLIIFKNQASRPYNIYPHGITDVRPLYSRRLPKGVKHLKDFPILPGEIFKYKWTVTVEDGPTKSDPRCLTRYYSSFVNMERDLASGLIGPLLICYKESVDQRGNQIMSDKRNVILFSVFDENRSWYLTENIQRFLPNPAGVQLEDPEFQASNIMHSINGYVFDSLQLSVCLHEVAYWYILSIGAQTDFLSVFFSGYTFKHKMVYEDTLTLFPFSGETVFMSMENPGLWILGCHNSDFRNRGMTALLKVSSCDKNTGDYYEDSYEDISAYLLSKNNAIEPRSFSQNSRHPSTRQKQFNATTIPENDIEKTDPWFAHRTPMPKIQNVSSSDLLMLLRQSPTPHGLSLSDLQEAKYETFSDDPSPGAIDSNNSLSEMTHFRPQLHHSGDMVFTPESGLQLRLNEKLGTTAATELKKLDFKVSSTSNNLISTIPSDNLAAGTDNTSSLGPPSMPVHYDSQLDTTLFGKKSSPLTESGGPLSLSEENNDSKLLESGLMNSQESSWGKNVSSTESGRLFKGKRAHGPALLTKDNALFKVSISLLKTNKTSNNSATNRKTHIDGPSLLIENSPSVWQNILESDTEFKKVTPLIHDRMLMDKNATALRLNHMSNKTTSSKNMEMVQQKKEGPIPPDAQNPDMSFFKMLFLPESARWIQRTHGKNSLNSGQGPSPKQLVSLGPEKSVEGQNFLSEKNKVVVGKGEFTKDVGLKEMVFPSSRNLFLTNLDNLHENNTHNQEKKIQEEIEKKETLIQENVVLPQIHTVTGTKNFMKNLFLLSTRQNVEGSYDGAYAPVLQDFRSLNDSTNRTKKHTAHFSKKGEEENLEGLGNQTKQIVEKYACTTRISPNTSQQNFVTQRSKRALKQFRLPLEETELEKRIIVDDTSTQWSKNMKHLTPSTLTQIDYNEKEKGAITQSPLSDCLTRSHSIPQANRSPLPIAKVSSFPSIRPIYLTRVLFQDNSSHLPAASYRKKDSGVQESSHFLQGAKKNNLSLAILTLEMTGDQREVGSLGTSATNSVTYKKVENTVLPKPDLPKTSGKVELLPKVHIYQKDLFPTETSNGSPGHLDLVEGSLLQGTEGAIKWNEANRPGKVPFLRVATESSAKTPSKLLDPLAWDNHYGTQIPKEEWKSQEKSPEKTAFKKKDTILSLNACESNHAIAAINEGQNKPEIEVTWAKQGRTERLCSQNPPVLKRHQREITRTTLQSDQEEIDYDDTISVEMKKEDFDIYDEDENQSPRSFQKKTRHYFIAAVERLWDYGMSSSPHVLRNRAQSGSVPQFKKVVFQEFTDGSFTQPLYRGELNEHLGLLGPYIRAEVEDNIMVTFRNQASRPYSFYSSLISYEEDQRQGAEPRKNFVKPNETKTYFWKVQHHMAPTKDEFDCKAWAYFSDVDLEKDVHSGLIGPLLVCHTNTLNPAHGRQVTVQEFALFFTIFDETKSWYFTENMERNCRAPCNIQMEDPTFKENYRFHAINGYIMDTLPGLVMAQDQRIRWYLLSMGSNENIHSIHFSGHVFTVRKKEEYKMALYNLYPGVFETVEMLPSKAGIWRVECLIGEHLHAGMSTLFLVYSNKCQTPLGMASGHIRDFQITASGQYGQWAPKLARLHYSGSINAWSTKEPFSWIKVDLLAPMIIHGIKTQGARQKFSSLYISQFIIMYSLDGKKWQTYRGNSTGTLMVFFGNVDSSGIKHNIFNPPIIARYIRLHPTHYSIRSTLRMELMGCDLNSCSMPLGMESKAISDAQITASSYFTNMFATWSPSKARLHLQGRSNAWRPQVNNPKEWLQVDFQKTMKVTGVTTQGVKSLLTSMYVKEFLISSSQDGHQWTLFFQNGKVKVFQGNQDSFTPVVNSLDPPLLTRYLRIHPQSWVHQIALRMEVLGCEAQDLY
# Sequence (P00451 1668-2351 limits assumed): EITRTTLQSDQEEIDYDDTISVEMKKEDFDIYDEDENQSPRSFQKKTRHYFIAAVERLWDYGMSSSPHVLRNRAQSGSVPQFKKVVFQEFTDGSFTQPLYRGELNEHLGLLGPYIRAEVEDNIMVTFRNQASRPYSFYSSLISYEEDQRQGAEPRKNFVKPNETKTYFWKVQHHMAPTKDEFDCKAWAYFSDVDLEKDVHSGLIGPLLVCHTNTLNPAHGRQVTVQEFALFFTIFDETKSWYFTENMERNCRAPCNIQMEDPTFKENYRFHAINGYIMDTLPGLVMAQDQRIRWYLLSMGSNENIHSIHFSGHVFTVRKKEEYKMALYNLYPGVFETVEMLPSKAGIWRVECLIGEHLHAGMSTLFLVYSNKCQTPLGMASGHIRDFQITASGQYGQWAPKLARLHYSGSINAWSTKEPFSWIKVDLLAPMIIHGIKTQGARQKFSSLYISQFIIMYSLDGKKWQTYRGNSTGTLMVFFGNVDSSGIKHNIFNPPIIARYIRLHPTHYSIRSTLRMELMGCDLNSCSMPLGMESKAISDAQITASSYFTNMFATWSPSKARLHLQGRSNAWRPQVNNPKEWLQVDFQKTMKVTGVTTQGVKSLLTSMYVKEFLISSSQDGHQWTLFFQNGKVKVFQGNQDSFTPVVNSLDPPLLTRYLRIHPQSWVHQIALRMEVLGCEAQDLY
# Test: confirmatory binding assay in filtration plate format using 14C-rFVIII
# Protocol conditions: Table 4; remaining on beads after washes; 14C-rFVIII 30 nM
Measured metric: beads % total (%)

query: So what's the measured beads % total for this one? 21 (HFQIFG) [compound 21]
result: 16

[a] 20 (WHHHRG) [compound 20]
[b] 19 (FHFGLQ) [compound 19]
query: Smaller beads % total value? Options are a and b Choose, then provide that item's label.
result: b
(b: 13%, a: 33%)

* * *

# Measured on: rFVIII (Homo sapiens)
# Test: confirmatory binding assay in filtration plate format using 14C-rFVIII
# Protocol conditions: Table 4; 14C-rFVIII 30 nM
Measured metric: Total dpm (dpm)

Solved cases below.
query: So what's the measured Total dpm for this one? 9 (FALPGR) [compound 9]
result: 3658

query: So what's the measured Total dpm for this one? 20 (WHHHRG) [compound 20]
result: 3884

query: So what's the measured Total dpm for this one? 19 (FHFGLQ) [compound 19]
result: 2987

[P] 22 (FVFLVR) [compound 22]
[Q] 14 (EPRVIG) [compound 14]
query: Smaller Total dpm value? Options are P and Q Choose, then provide that item's label.
result: Q

* * *

# Measured on: rFVIII (Homo sapiens)
# Test: column format binding assay, rFVIII mass per fraction by sandwich capture ELISA for the light chain
# Protocol conditions: Table 5
Measured metric: Flow through % total (%)

[1] 16 (WRRHRY) [compound 16]
[2] 18 (WLWSHN) [compound 18]
[3] 4 (FRPHWA) [compound 4]
query: Give the descending Flow through % total ranking for the 3 substances listed above. Provide the labels, sequenced as the question asks.
result: 3, 1, 2

* * *

# Measured on: rFVIII (Homo sapiens, UniProt P00451)
# Test: confirmatory binding assay in filtration plate format using 14C-rFVIII
# Protocol conditions: Table 3; 14C-rFVIII 20 nM in PPF, 5 mg beads
Measured metric: 2% acetic acid dpm (dpm)

Solved cases below.
query: So what's the measured 2% acetic acid dpm for this one? 18 (WLWSHN) [compound 18]
result: 1752

query: So what's the measured 2% acetic acid dpm for this one? 7 (IRFYSE) [compound 7]
result: 415

query: So what's the measured 2% acetic acid dpm for this one? 1 (KPNPLA) [compound 1]
result: 368

[P] 2 (RNPPNN) [compound 2]
[Q] 17 (FYRFWN) [compound 17]
query: For this pair, P and Q , which shows a numerically higher 2% acetic acid dpm? Choose, then provide that item's label.
result: Q

* * *

# Measured on: rFVIII (Homo sapiens)
# Test: column format binding assay, rFVIII mass per fraction by sandwich capture ELISA for the light chain
# Protocol conditions: Table 6
Measured metric: 0.5M CaCl2 % total (%)

[I] 19 (FHFGLQ) [compound 19]
[II] 10 (AFVRSL) [compound 10]
[III] 20 (WHHHRG) [compound 20]
query: Provide the items ranked by increasing 0.5M CaCl2 % total. Provide the labels, sequenced as the question asks.
result: III, I, II
(III: 1%, I: 25%, II: 98%)

* * *

# Measured on: rFVIII (Homo sapiens, UniProt P00451)
# Test: rFVIII activity recovery from peptide columns by chromogenic substrate assay (COATEST)
# Assay type: biochemical
# Protocol conditions: Table 8; activity recovery
Measured metric: 0.5M CaCl2 % total (%)

Solved cases below.
query: So what's the measured 0.5M CaCl2 % total for this one? 13 (KAQETW) [compound 13]
result: 96

query: So what's the measured 0.5M CaCl2 % total for this one? 9 (FALPGR) [compound 9]
result: 98

query: So what's the measured 0.5M CaCl2 % total for this one? 11 (NAIFQW) [compound 11]
result: 90

query: So what's the measured 0.5M CaCl2 % total for this one? 19 (FHFGLQ) [compound 19]
result: 51

query: So what's the measured 0.5M CaCl2 % total for this one? 20 (WHHHRG) [compound 20]
result: 4

[a] 15 (VYGVGG) [compound 15]
[b] 12 (QRLIQF) [compound 12]
query: For this pair, a and b , which shows a numerically higher 0.5M CaCl2 % total? Choose, then provide that item's label.
result: b
